target: human recombinant USP30 (Homo sapiens, UniProt Q70CQ3); assay: Ubiquitin-Rhodamine 110 Assay for USP30 Activity (USP30 Inhibitor Biochemical Assay); details: 0.2 nM USP30, 25 nM Ub-Rh110, 30 min preincubation, 30 min at room temperature; read-out: USP30 potency range (USP30 biochemical IC50 assay, IC50 ranges)
Sequence (Q70CQ3 whole entry): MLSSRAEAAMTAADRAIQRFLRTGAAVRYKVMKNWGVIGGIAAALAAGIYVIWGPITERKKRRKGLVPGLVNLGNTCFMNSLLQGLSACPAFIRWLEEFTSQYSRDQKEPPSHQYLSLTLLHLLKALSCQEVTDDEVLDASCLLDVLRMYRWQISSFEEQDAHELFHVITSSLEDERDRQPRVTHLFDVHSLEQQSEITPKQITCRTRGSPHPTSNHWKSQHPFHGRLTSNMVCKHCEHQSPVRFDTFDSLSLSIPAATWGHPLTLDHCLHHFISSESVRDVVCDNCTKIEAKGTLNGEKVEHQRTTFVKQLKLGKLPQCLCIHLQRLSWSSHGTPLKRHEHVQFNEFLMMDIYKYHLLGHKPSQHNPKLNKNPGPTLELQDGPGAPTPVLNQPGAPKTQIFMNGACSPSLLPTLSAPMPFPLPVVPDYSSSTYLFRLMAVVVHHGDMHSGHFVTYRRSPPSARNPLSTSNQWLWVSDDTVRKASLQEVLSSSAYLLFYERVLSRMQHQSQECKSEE
Answer each item with its documented IC50.

// sample CC(C)(C)c1sc(NC(=O)[C@]2(Cl)C[C@@H](NC#N)C2)nc1Cl (single isomer, unassigned) , its IC50 was < 0.1 µM

// sample CC(C)(C)c1cnc(NC(=O)[C@H]2C[C@H](NC#N)C2)s1 , its IC50 was 0.1 to 1 µM

// sample CC(C)(C)c1sc(NC(=O)[C@]2(F)C[C@@H](NC#N)C2)nc1Cl , its IC50 was 0.1 to 1 µM

// sample N#CN[C@@H]1CCC[C@@H]1C(=O)Nc1ncc(C2CCCCC2)s1 , its IC50 was 1 to 10 µM

* * *

molecular target: human recombinant USP30 (Homo sapiens, UniProt Q70CQ3); assay: Ubiquitin-Rhodamine 110 Assay for USP30 Activity (USP30 Inhibitor Biochemical Assay); settings: 0.2 nM USP30, 25 nM Ub-Rh110, 30 min preincubation, 30 min at room temperature; read-out: USP30 potency range (USP30 biochemical IC50 assay, IC50 ranges)
pIC50: −log10 of the molar value.
readout kind: pIC50

// sample N#CN[C@H]1C[C@H](C(=O)Nc2nc(-c3cnn(C4CC4)c3)c(C3CCCCC3)s2)C1 [Compound 1-26] , its pIC50 was > 7.00

// sample N#CN[C@H]1C[C@H](C(=O)Nc2cc(-c3cccc(Cl)c3)no2)C1 [Compound 1-41] , its pIC50 was 6.00 to 7.00

// sample CCC1(C(=O)Nc2cnc(C3CCCCC3)s2)CC(NC#N)C1 (centres unmarked) [Compound 1-46] , its pIC50 was 6.00 to 7.00

// sample CN(c1nc(Cl)c(C(C)(C)C)s1)C(=O)[C@]1(F)C[C@H](NC#N)C1 [Compound 1-54] , its pIC50 was > 7.00

// sample N#CN[C@H]1C[C@]2(CCN(c3nc(Cl)c(C4CCCCC4)s3)C2=O)C1 [Compound 7-3] , its pIC50 was > 7.00

// sample N#CN[C@@H]1CCC[C@H]1C(=O)Nc1ncc(C2CCCCC2)s1 [Compound 10-3] , its pIC50 was 5.00 to 6.00

// sample CN(C(=O)c1cc(-c2cccc(C#N)c2)no1)[C@H]1C[C@H](NC#N)C1 [Compound 3-6] , its pIC50 was 5.00 to 6.00

// sample CC(C)(C)c1cnc(NC(=O)[C@H]2C[C@@H](NC#N)C2)s1 [Compound 5-10] , its pIC50 was 4.60 to 5.00

* * *

Answer each item with its documented pIC50.
target: human recombinant USP30 (Homo sapiens, UniProt Q70CQ3); assay: Ubiquitin-Rhodamine 110 Assay for USP30 Activity (USP30 Inhibitor Biochemical Assay); details: 0.2 nM USP30, 25 nM Ub-Rh110, 30 min preincubation, 30 min at room temperature; read-out: USP30 potency range (USP30 biochemical IC50 assay, IC50 ranges)
pIC50: −log10 of the molar value.

// sample N#CN[C@H]1CC[C@H](C(=O)Nc2ncc(C3CCCCC3)s2)C1 [Compound 12-3] , its pIC50 was 6.00 to 7.00

// sample N#CN[C@H]1CCN(C(=O)c2csc(-c3cccc(Cl)c3Cl)n2)C1 [Compound 12-8] , its pIC50 was 5.00 to 6.00

// sample N#CN[C@H]1CC[C@H](C(=O)Nc2ncc(C3CCOCC3)s2)C1 [Compound 10-10] , its pIC50 was 5.00 to 6.00

// sample N#CN[C@H]1C[C@H](C(=O)Nc2sc(C3CCCCC3)nc2Cl)C1 [Compound 1-14] , its pIC50 was 6.00 to 7.00

// sample N#CN[C@H]1CC[C@@H](C(=O)Nc2ncc(-c3ccccc3)s2)C1 [Compound 12-1] , its pIC50 was 5.00 to 6.00

// sample N#CN[C@H]1C[C@@H](C(=O)Nc2cnn(-c3ccccc3)c2)C1 [Compound 5-1] , its pIC50 was 5.00 to 6.00

// sample N#CN[C@H]1CCC[C@@H](C(=O)Nc2ncc(C3CCCCC3)s2)C1 [Compound 10-4] , its pIC50 was < 4.60

// sample N#CN[C@H]1C[C@H](C(=O)Nc2cc(-c3cccc(C#N)c3)no2)C1 [Compound 1-51] , its pIC50 was 6.00 to 7.00

// sample N#CN[C@H]1C[C@@H](NC(=O)c2ncc(-c3ccccc3)s2)C1 [Compound 4-1] , its pIC50 was 5.00 to 6.00

// sample N#CN[C@H]1C[C@H](C(=O)Nc2nc(C3CC3)c(C3CCCCC3)s2)C1 [Compound 1-25] , its pIC50 was > 7.00

// sample Cc1cc(NC(=O)[C@H]2C[C@H](NC#N)C2)cc(-c2ccccc2F)c1 [Compound 1-61] , its pIC50 was 6.00 to 7.00

// sample N#CN[C@H]1C[C@@](F)(C(=O)Nc2cc(-c3ccc(C(F)(F)F)cc3)n[nH]2)C1 [Compound 1-57] , its pIC50 was 6.00 to 7.00

// sample CC(C)(C)c1cnc(NC(=O)[C@H]2CC[C@@H](NC#N)C2)s1 [Compound 12-7] , its pIC50 was 5.00 to 6.00

// sample N#CN[C@H]1C[C@@H](C(=O)Nc2ncc(C3CCCCC3)s2)C1 [Compound 5-3] , its pIC50 was 5.00 to 6.00

// sample Cn1cc(-c2ccc(-c3cc(C(=O)N[C@H]4C[C@@H](NC#N)C4)on3)cc2)cn1 [Compound 3-3] , its pIC50 was 6.00 to 7.00

// sample N#CN[C@H]1C[C@H](C(=O)Nc2ccc3c(c2)CCC3)C1 [Compound 5-12] , its pIC50 was 5.00 to 6.00

// sample N#CN[C@H]1C[C@H](C(=O)Nc2cc(Cl)n(C3CCCCC3)n2)C1 [Compound 1-39] , its pIC50 was 6.00 to 7.00

// sample N#CN[C@H]1C[C@H](C(=O)Nc2cnn(-c3ccccc3)c2)C1 [Compound 5-5] , its pIC50 was 5.00 to 6.00

// sample N#CN[C@H]1C[C@H](C(=O)Nc2ncc(-c3cccc(C#N)c3)s2)C1 [Compound 1-40] , its pIC50 was 6.00 to 7.00

// sample N#CN[C@H]1C[C@](F)(C(=O)Nc2nc(Cl)c(C3CCCCC3)s2)C1 [Compound 1-47] , its pIC50 was 6.00 to 7.00

// sample N#CN[C@H]1C[C@](F)(C(=O)Nc2cc(-c3ccc(C(F)(F)F)cc3)n[nH]2)C1 [Compound 1-56] , its pIC50 was 6.00 to 7.00

// sample N#CN[C@H]1C[C@H](C(=O)Nc2cc(-c3cccc(Cl)c3)on2)C1 [Compound 1-43] , its pIC50 was 6.00 to 7.00

// sample N#CN[C@H]1C[C@H](C(=O)Nc2ncc(C3CCOCC3)s2)C1 [Compound 1-1] , its pIC50 was 5.00 to 6.00

Reference for the values: patent US11247987B2
